# GI50 annotations
- Test system: K562
- TEST SUMMARY: NCI tumour cell line growth inhibition, 48 h
Calls of active or inactive are those of the source. No stated cut-off is given here; in the data, active = GI50 up to about 1.1 µM and inactive = higher. Where a SMILES comes first, the peptide text is derived from it. The star is where a group is joined. Boc = CC(C)(C)OC(=O)*

{"MOLECULE": "Cc1nc(C)c(N2CCN(Cc3ccccc3)CC2)c(O)n1", "GI50": "> 100 µM (inactive)"}
{"MOLECULE": "CC1S/C(=N\\N=C2/C(=O)Nc3ccc(Br)cc32)N(C2CCCCC2)C1=O (stereo not drawn)", "GI50": "> 100 µM (inactive)"}
{"MOLECULE": "CO/C(=N\\N=C\\c1ccc(OC)cc1OC)c1ccncc1", "GI50": "> 10 µM (inactive)"}
{"MOLECULE": "CC(NC(=O)C(NC(=O)OC(C)(C)C)C(C)C)C(=O)NCC(=O)O (stereo not drawn) (Boc-Val-Ala-Gly-OH; configuration not given here)", "GI50": "> 100 µM (inactive)"}
{"MOLECULE": "CCC(C)(O)c1cn(-c2cccc(S(=O)(=O)O)c2)nn1 (stereo not drawn)", "GI50": "> 100 µM (inactive)"}
{"MOLECULE": "Cn1cc(NC(=O)c2cc(NC(=O)CCCCCCCCC(=O)Nc3cc(C(=O)Nc4cc(C(=O)NCCC(N)N)n(C)c4)n(C)c3)cn2C)cc1C(=O)NCCC(=N)N", "GI50": "13.4 µM (inactive)"}
{"MOLECULE": "CC(=O)NC(C)(C)C1CCC(C)CC1 (stereo not drawn)", "GI50": "> 100 µM (inactive)"}
{"MOLECULE": "c1cncc(-c2cc(-c3cc(-c4cccnc4)[nH]n3)n[nH]2)c1", "GI50": "> 100 µM (inactive)"}
{"MOLECULE": "COc1ccc(-c2onc(-c3c(C)cc(C)cc3C)c2C2=NCCCN2)cc1", "GI50": "28.8 µM (inactive)"}
{"MOLECULE": "CC(C)=CC(=O)c1[nH]c2ccccc2c1CC(=O)NCCc1cncn1C", "GI50": "30.5 µM (inactive)"}
{"MOLECULE": "Cc1csc(=S)n1OC(=O)NC1CCCCC1", "GI50": "31 µM (inactive)"}
{"MOLECULE": "NC(=O)c1coc(C2OC(CO)C(O)C2O)n1 (stereo not drawn)", "GI50": "> 100 µM (inactive)"}
{"MOLECULE": "CCOC(=O)C(Cc1c[nH]c2cc([N+](=O)[O-])ccc12)NS(=O)(=O)c1ccc2ccccc2c1 (stereo not drawn)", "GI50": "18.1 µM (inactive)"}
{"MOLECULE": "COc1ccc(OC)c2c3c(ccc12)C(c1ccccc1)OC3=O (stereo not drawn)", "GI50": "47.2 µM (inactive)"}
{"MOLECULE": "Nc1ncnc2c1ncn2C=C=CCO", "GI50": "> 100 µM (inactive)"}
{"MOLECULE": "O=C1C(Cl)=C(NCCCN2CCOCC2)C(=O)c2c(O)ccc(O)c21", "GI50": "2.62 µM (inactive)"}
{"MOLECULE": "CCCCC(=O)c1c(O)ccc2c(C)cc(=O)oc12", "GI50": "> 100 µM (inactive)"}
{"MOLECULE": "COC(=O)c1sc(=O)sc1SCc1cccc(CSc2sc(=O)sc2C(=O)OC)c1", "GI50": "43.3 µM (inactive)"}
{"MOLECULE": "COC(=O)C1=C(C(=O)OC)C2OC1C1C2C2(C)C(C)=C(C)C1(C)[S+]2[O-] (stereo not drawn)", "GI50": "4.9 µM (inactive)"}
{"MOLECULE": "O=Cc1ccc(CCl)cc1", "GI50": "27.1 µM (inactive)"}
{"MOLECULE": "CS/C(=N\\Nc1cnc2ccccc2n1)NS(=O)(=O)c1cc(C)c(Cl)cc1Cl", "GI50": "> 100 µM (inactive)"}
{"MOLECULE": "COc1ccccc1NC(=O)C(=O)Cc1cnc2ccccc2n1", "GI50": "> 100 µM (inactive)"}
{"MOLECULE": "CCOC(=O)/C=C(/C(=O)OCC)n1ccc(=O)n(Cc2cnnn2CCCCOC(C)=O)c1=O", "GI50": "70.1 µM (inactive)"}
{"MOLECULE": "CSC(=N)NNC(=O)CCC(=O)Nc1ccccc1C(F)(F)F", "GI50": "> 100 µM (inactive)"}
{"MOLECULE": "Cc1ccc(C(C)C)c(OCC(=O)N/N=C/c2c[nH]c3ccc(Br)cc23)c1", "GI50": "2.38 µM (inactive)"}
{"MOLECULE": "N#CC(c1ccccc1)N(CCCCCCN(C(=O)c1ccccc1)C(C#N)c1ccccc1)C(=O)c1ccccc1 (stereo not drawn)", "GI50": "35.2 µM (inactive)"}
{"MOLECULE": "C(/C=N/c1ccccc1)=C(/Nc1ccccc1)C12CC3CC(CC(C3)C1)C2", "GI50": "7.23 µM (inactive)"}
{"MOLECULE": "CCC12C=CCN3CCC4(C(=C(C(=O)OC)C1)Nc1ccccc14)[C@H]32 (stereo partly drawn)", "GI50": "18.8 µM (inactive)"}
{"MOLECULE": "Cc1cnc2nc(-c3sccc3C)cc(O)c2c1", "GI50": "5.04 µM (inactive)"}
{"MOLECULE": "O=C(O)c1cc(Cl)cc2c1NC1(N2)C(=O)Nc2ccccc21 (stereo not drawn)", "GI50": "> 100 µM (inactive)"}
{"MOLECULE": "Nc1nc(-c2ccccc2)nc2c1[n+]([O-])c1ccccc1[n+]2[O-]", "GI50": "> 100 µM (inactive)"}
{"MOLECULE": "Cc1c(C)c2c(c(N)c1C#N)C(=O)N(OS(=O)(=O)c1ccccc1)C2=O", "GI50": "16.7 µM (inactive)"}
{"MOLECULE": "CC(=O)OCCCCn1cnc2nc(Nc3ccccc3)nc(Cl)c21", "GI50": "99.1 µM (inactive)"}
